Give measured Ratio over Background for each item. Keep answers brief.
target-system: T1, Soluble IGF-1R (sIGF-1R), R&D Systems Cat. # 391-GR/CF (UniProt P08069 31-935, limits assumed)
T1 construct: extracellular domain
experimental-details: phage ELISA

Entry under review: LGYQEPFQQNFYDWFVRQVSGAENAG [H2CA-3-E8-IGFR] . Reported Ratio over Background? 6.3

Entry under review: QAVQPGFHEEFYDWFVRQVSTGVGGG [H2CA-4-H4-IGFR] . Reported Ratio over Background? 4.1

Entry under review: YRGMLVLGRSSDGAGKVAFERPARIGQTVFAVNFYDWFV [A6L-0-E6-IR] . Reported Ratio over Background? 31

Entry under review: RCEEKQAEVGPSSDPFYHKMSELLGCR [B6Hα-3-E9-IR] . Reported Ratio over Background? 24.2

This collection of values is drawn from patent US20070265189A1.
